system: Candida glabrata ATCC 36909; test: Antifungal disk-diffusion; details: Nakaseomyces glabratus, ATCC36909, 72 h, read-out: Inhibition Zone Diameter, 10 mM on disk, 72 h
zone of inhibition at 10000 µM values by entry
The reply should contain only the number, in mm.

line_notation: COc1cc(OC)cc(C(=O)[Se]CC(=O)C(C)(C)C)c1
reported_metric: zone of inhibition at 10000 µM
value_observed: 18
//
line_notation: O=C1[Se]C(=O)c2ccccc21
reported_metric: zone of inhibition at 10000 µM
value_observed: 13

Prompt line: Fill in: zone of inhibition at 10000 µM of `CC(C)(C)C(=O)C[Se]C(=O)c1ccc(Cl)cc1` is ___
Response line: 25

====

system: Candida parapsilosis ATCC 22019; assay: Antifungal disk-diffusion; conditions: Lodderomyces parapsilosis, ATCC22019, 72 h, read-out: Inhibition Zone Diameter
zone of inhibition at 10000 µM values by entry

line_notation: CC(C)(C)C(=O)C[Se]C(=O)c1ccc(Cl)cc1
zone of inhibition at 10000 µM: > 30 mm

line_notation: CC(=O)C[Se]C(=O)c1ccc(Cl)cc1
zone of inhibition at 10000 µM: > 30 mm

line_notation: COc1cc(OC)cc(C(=O)[Se]CC(=O)C(C)(C)C)c1
zone of inhibition at 10000 µM: > 30 mm

Next up:
Prompt line: Enter reported zone of inhibition at 10000 µM observed with Candida parapsilosis ATCC 22019 for `O=C1[Se]C(=O)c2ccccc21`
Response line: 6 mm

====

Here's a batch of compounds along with measured MIC for Candida parapsilosis ATCC 22019.

Prompt line: Enter reported MIC observed with Candida parapsilosis ATCC 22019 for `CC(=O)C[Se]C(=O)c1ccc(Cl)cc1`
Response line: > 200 µM

Prompt line: Enter reported MIC observed with Candida parapsilosis ATCC 22019 for `CC(C)(C)C(=O)C[Se]C(=O)c1ccc(Cl)cc1`
Response line: > 200 µM

Prompt line: Enter reported MIC observed with Candida parapsilosis ATCC 22019 for `COc1cc(OC)cc(C(=O)[Se]CC(=O)C(C)(C)C)c1`
Response line: 100 µM

Prompt line: Enter reported MIC observed with Candida parapsilosis ATCC 22019 for `O=C1[Se]C(=O)c2ccccc21`
Response line: > 200 µM

====

system: Candida albicans ATCC 10231; experiment: Antifungal disk-diffusion; settings: ATCC10231, 72 h, read-out: Inhibition Zone Diameter
zone of inhibition at 10000 µM values by entry

line_notation: CC(C)(C)C(=O)C[Se]C(=O)c1ccc(Cl)cc1
measured_target: Candida albicans ATCC 10231
value_observed: > 30 mm
//
line_notation: CC(=O)C[Se]C(=O)c1ccc(Cl)cc1
measured_target: Candida albicans ATCC 10231
value_observed: > 30 mm
//
line_notation: COc1cc(OC)cc(C(=O)[Se]CC(=O)C(C)(C)C)c1
measured_target: Candida albicans ATCC 10231
value_observed: 19 mm

Next up:
Prompt line: Fill in: zone of inhibition at 10000 µM of `O=C1[Se]C(=O)c2ccccc21` is ___
Response line: > 30 mm

====

experiment: MTT cytotoxicity assay on Vero cells; conditions: African green monkey
IC50 at 24 h values by entry

Example compounds with recorded IC50 at 24 h:
compound: COc1cc(OC)cc(C(=O)[Se]CC(=O)C(C)(C)C)c1 [Compound 11]
IC50 at 24 h: 39 µM

compound: COC(=O)C[Se]C(=O)c1ccc(Cl)cc1 [Compound 7]
IC50 at 24 h: > 100 µM

compound: C[Se]C(=O)c1ccc(C(=O)[Se]C)s1 [Compound 2]
IC50 at 24 h: > 100 µM

compound: NC(=O)C[Se]C(=O)c1ccccc1 [Compound 6]
IC50 at 24 h: > 100 µM

Next up:
Prompt line: Fill in: IC50 at 24 h of O=C1[Se]C(=O)c2ccccc21 [Compound 1] is ___
Response line: > 100 µM
